Tested on: RS4;11 cells
Assay: RS4;11 cell viability assay (CellTiter Glo)
Format: cell-based, human
Conditions: Homo sapiens, RS4-11, 48 h, 50,000 cells per well, 10% human serum, 48 hours; read-out: RS4; 11 EC50 Values
measured.endpoint: EC50 (nM)
Numbers only, in nM.

Below, 4 molecules whose answers are already recorded.
CC1(C)CCC(CN2CCN(c3ccc(C(=O)NS(=O)(=O)c4ccc(NCC5CNCCO5)c([N+](=O)[O-])c4)c(Oc4cnc5[nH]ccc5c4)c3)CC2)=C(c2ccc(Cl)cc2)C1 (centres unmarked) [Example 113] :: 1.36
CC1(C)CCC(CN2CCN(c3ccc(C(=O)NS(=O)(=O)c4ccc(OCC5CCOC(C)(C)C5)c([N+](=O)[O-])c4)c(Oc4cnc5[nH]ccc5c4)c3)CC2)=C(c2ccc(Cl)cc2)C1 (centres unmarked) [Example 51] :: 23.1
CO[C@H]1CC[C@H](COc2ccc(S(=O)(=O)NC(=O)c3ccc(N4CCN(CC5=C(c6ccc(Cl)cc6)CC(C)(C)CC5)CC4)cc3Oc3cnc4[nH]ccc4c3)cc2[N+](=O)[O-])CC1 [Example 125] :: 8.38
COCCN1CCOC(CNc2ccc(S(=O)(=O)NC(=O)c3ccc(N4CCN(CC5=C(c6ccc(Cl)cc6)CC(C)(C)CC5)CC4)cc3Oc3cnc4[nH]ccc4c3)cc2[N+](=O)[O-])C1 (centres unmarked) [Example 135] :: 2.37

[in] Query: EC50; subject: CC1(C)CCC(CN2CCN(c3ccc(C(=O)NS(=O)(=O)c4ccc(NCC5COCCN5C5CCC5)c([N+](=O)[O-])c4)c(Oc4cnc5[nH]ccc5c4)c3)CC2)=C(c2ccc(Cl)cc2)C1 (centres unmarked) [Example 170]
[out] 125

###

System: RS4;11 cells
Assay: RS4;11 cell viability assay (CellTiter Glo)
Format: cell-based, human
Details: Homo sapiens, RS4-11, 48 h, 50,000 cells per well, 10% human serum, 48 hours; read-out: RS4; 11 EC50 Values
For each record, write down the corresponding EC50.
One number for each entry, in nM.

The examples below pair each entry with its known result.
CC1(C)CCC(CN2CCN(c3ccc(C(=O)NS(=O)(=O)c4ccc(OCc5ccoc5)c([N+](=O)[O-])c4)c(Oc4cnc5[nH]ccc5c4)c3)CC2)=C(c2ccc(Cl)cc2)C1 :: 225
CCN(C)C(=O)N1CCOC(CNc2ccc(S(=O)(=O)NC(=O)c3ccc(N4CCN(CC5=C(c6ccc(Cl)cc6)CC(C)(C)CC5)CC4)cc3Oc3cnc4[nH]ccc4c3)cc2Cl)C1 (stereo not drawn) :: 463

Then there is this compound:
[in] Dear colleague, I am looking for the recorded EC50 of the following compound: CC1(C)CCC(CN2CCN(c3ccc(C(=O)NS(=O)(=O)c4ccc(OCC#CCN5CCOCC5)c([N+](=O)[O-])c4)c(Oc4cnc5[nH]ccc5c4)c3)CC2)=C(c2ccc(Cl)cc2)C1
[out] 108

###

Tested on: RS4;11 cells
Assay: RS4;11 cell viability assay (CellTiter Glo)
Assay type: cell-based, human
Conditions: Homo sapiens, RS4-11, 48 h, 50,000 cells per well, 10% human serum, 48 hours; read-out: RS4; 11 EC50 Values
measured.endpoint: pEC50
One number for each entry, as −log10 of the molar value.

The cases that follow already have their pEC50 on record.
CC1(C)CCC(CN2CCN(c3ccc(C(=O)NS(=O)(=O)c4ccc(NC5CCC(NC6CC6(F)F)CC5)c([N+](=O)[O-])c4)c(Oc4cnc5[nH]ccc5c4)c3)CC2)=C(c2ccc(Cl)cc2)C1 (centres unmarked) :: 7.64
CC1(C)CCC(CN2CCN(c3ccc(C(=O)NS(=O)(=O)c4ccc(NCC(F)(F)F)c([N+](=O)[O-])c4)c(Oc4cnc5[nH]ccc5c4)c3)CC2)=C(c2ccc(Cl)cc2)C1 :: 7.23
CC1(C)CCC(CN2CCN(c3ccc(C(=O)NS(=O)(=O)c4ccc(NC5CCC(N(CCC#N)C6CC6)CC5)c([N+](=O)[O-])c4)c(Oc4cnc5[nH]ccc5c4)c3)CC2)=C(c2ccc(Cl)cc2)C1 (centres unmarked) :: 7.25
CN(C)CCCOc1ccc(CNc2ccc(S(=O)(=O)NC(=O)c3ccc(N4CCN(CC5=C(c6ccc(Cl)cc6)CC(C)(C)CC5)CC4)cc3Oc3cnc4[nH]ccc4c3)cc2[N+](=O)[O-])cc1 :: 7.90

Now for the compound whose pEC50 we want.
[in] Returns the measured pEC50 for the input compound. Input: CC1(C)CCC(CN2CCN(c3ccc(C(=O)NS(=O)(=O)c4ccc(N[C@@H]5CCN(S(C)(=O)=O)C5)c([N+](=O)[O-])c4)c(Oc4cnc5[nH]ccc5c4)c3)CC2)=C(c2ccc(Cl)cc2)C1
[out] 7.87

###

System: RS4;11 cells
Assay: RS4;11 cell viability assay (CellTiter Glo)
Format: cell-based, human
Details: Homo sapiens, RS4-11, 48 h, 50,000 cells per well, 10% human serum, 48 hours; read-out: RS4; 11 EC50 Values
measured.endpoint: EC50

Please review the following examples before continuing.
CC1(C)CCC(CN2CCN(c3ccc(C(=O)NS(=O)(=O)c4cnc(OCC5(F)CCOCC5)c(Cl)c4)c(Oc4cnc5[nH]ccc5c4)c3)CC2)=C(c2ccc(Cl)cc2)C1 :: 43.6 nM
CC1(C)CCC(CN2CCN(c3ccc(C(=O)NS(=O)(=O)c4ccc(NC5CCN(C(C)(C)C)CC5)c(S(=O)(=O)C(F)(F)F)c4)c(Oc4cnc5[nH]ccc5c4)c3)CC2)=C(c2ccc(Cl)cc2)C1 :: 17.3 nM

Next up:
[in] // lookup EC50 for CC1(C)CCC(CN2CCN(c3ccc(C(=O)NS(=O)(=O)c4ccc(OCC5COCCN5C(=O)OC(C)(C)C)c([N+](=O)[O-])c4)c(Oc4cnc5[nH]ccc5c4)c3)CC2)=C(c2ccc(Cl)cc2)C1 (stereo not drawn)
[out] 762 nM

###

Tested on: RS4;11 cells
Assay: RS4;11 cell viability assay (CellTiter Glo);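 further: acute lymphoblastic leukemia line RS4,11, EC50 derived from percentage of viable cells after treatment relative to untreated controls, cell killing taken as a measure of Bcl-2 inhibition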
Assay type: cell-based, human
Conditions: Homo sapiens, RS4-11, 48 h, 50,000 cells per well, 10% human serum, 48 hours; read-out: RS4; 11 EC50 Values
Field: label. Allowed values: Fulfilled (EC50 < 100 nM) or Not fulfilled (EC50 >= 100 nM).

CC1(C)CCC(CN2CCN(c3ccc(C(=O)NS(=O)(=O)c4ccc(OCC5(F)CCOCC5)c([N+](=O)[O-])c4)c(Oc4cnc5[nH]ccc5c4)c3)CC2)=C(c2ccc(Cl)cc2)C1 :: Fulfilled
CC(C)c1cc(S(=O)(=O)NC(=O)c2ccc(N3CCN(CC4=C(c5ccc(Cl)cc5)CC(C)(C)CC4)CC3)cc2Oc2cnc3[nH]ccc3c2)cnc1OCC1CCOCC1 :: Not fulfilled
CC1(C)CCC(CN2CCN(c3ccc(C(=O)NS(=O)(=O)c4ccc(NCCC#N)c([N+](=O)[O-])c4)c(Oc4cnc5[nH]ccc5c4)c3)CC2)=C(c2ccc(Cl)cc2)C1 :: Fulfilled
CC1(C)CCC(CN2CCN(c3ccc(C(=O)NS(=O)(=O)c4ccc(Cl)c([N+](=O)[O-])c4)c(Oc4cnc5[nH]ccc5c4)c3)CC2)=C(c2ccc(Cl)cc2)C1 :: Not fulfilled
CC1(C)CCC(CN2CCN(c3ccc(C(=O)NS(=O)(=O)c4cnc(OC[C@@H]5CN(C6CC6)CCO5)c(Cl)c4)c(Oc4cnc5[nH]ccc5c4)c3)CC2)=C(c2ccc(Cl)cc2)C1 :: Not fulfilled
CC1(C)CCC(CN2CCN(c3ccc(C(=O)NS(=O)(=O)c4ccc(NCC5CCN(C6CC6)CC5)c([N+](=O)[O-])c4)c(Oc4cnc5[nH]ccc5c4)c3)CC2)=C(c2ccc(Cl)cc2)C1 :: Fulfilled

[in] In the record for CC1(C)CCC(CN2CCN(c3ccc(C(=O)NS(=O)(=O)c4ccc(OCCOC5CCOC5)c([N+](=O)[O-])c4)c(Oc4cnc5[nH]ccc5c4)c3)CC2)=C(c2ccc(Cl)cc2)C1 (stereo not shown) , is EC50 less than 100 nM?
[out] Not fulfilled

[in] Strictly below 100 nM: is that where EC50 of CC1CN(c2ccc(C(=O)NS(=O)(=O)c3ccc(NCC4CCOCC4)c([N+](=O)[O-])c3)c(Oc3cnc4[nH]ccc4c3)c2)CCN1CC1=C(c2ccc(Cl)cc2)CC(C)(C)CC1 (stereo not shown) sits?
[out] Not fulfilled

[in] Hello, is EC50 of the following molecule strictly smaller than 100 nM? CC1(C)CCC(CN2CCN(c3ccc(C(=O)NS(=O)(=O)c4cnc(OC[C@@H]5CN(CC#N)CCO5)c(Cl)c4)c(Oc4cnc5[nH]ccc5c4)c3)CC2)=C(c2ccc(Cl)cc2)C1
[out] Not fulfilled

[in] Is EC50 strictly under 100 nM for the entry CC1(C)CCC(CN2CCN(c3ccc(C(=O)NS(=O)(=O)c4ccc(NN5CCN(C6CCOCC6)CC5)c([N+](=O)[O-])c4)c(Oc4cnc5[nH]ccc5c4)c3)CC2)=C(c2ccc(Cl)cc2)C1 ?
[out] Fulfilled
